# Protocol: Human HepG2 cell viability assay in 384 well format
# Assay type: toxicity, cell-based
# Set-up: dose 125 nL, time 70.5 hour; concentration not given beside the values
# Condition set: HepG2 cells, read-out: Inhibition
This section presents molecules with their documented cytotoxicity at 70.5 h values.
Please give a number only; it is taken to be in %.

Sample records with cytotoxicity at 70.5 h:
INSERT INTO assay_data (molecule, quantity_measured, data_value) VALUES
  ('Cc1ccc(-n2nc3n(c2=O)CCN(C(=O)c2ccc(Cl)cc2)C3)cc1', 'cytotoxicity at 70.5 h', -10.2),
  ('Cc1cccc(-c2ncc(CNC(C)Cc3ccncc3)cn2)c1 (stereo not drawn)', 'cytotoxicity at 70.5 h', -3.63),
  ('Fc1cccc(-n2cc(CN3CCCCC3CCn3ccnc3)cn2)c1 (stereo not drawn)', 'cytotoxicity at 70.5 h', 4.66),
  ('Cc1ccc2c(c1)C(=O)NCC1(CCN(C(=O)c3cc(C)no3)CC1)O2', 'cytotoxicity at 70.5 h', -7.27),
  ('O=C(CCN1CCCC1)N1CC[C@@H](c2ccc3ccccc3c2)[C@H](O)C1', 'cytotoxicity at 70.5 h', -21);

Exam item: Need cytotoxicity at 70.5 h of O=C(Cc1ccc(F)cc1)NCCNS(=O)(=O)C1CCCC1 , thanks.
Marked response: -8.77

Exam item: Entry COc1ccc(CNC(=O)NC(C)(C(=O)O)c2ccco2)cc1F (stereo not drawn) please
Marked response: 16.9

Exam item: Entry Cc1cc(NC(=O)NCC(c2ccccc2)N2CCOCC2)n(C)n1 (stereo not drawn) please
Marked response: -3.59

Exam item: Entry CN(Cc1cnccn1)S(=O)(=O)c1ccc(C(F)(F)F)nc1 please
Marked response: 36.5

Exam item: Entry COc1cccc(-c2noc(C3CCN(Cc4ccccc4F)C3)n2)c1 (stereo not drawn) please
Marked response: 38.2

Exam item: Entry CN(CC(=O)N1CCC(C(O)c2ccccc2)CC1)c1cnccn1 (stereo not drawn) please
Marked response: -20.6
